Target: human A3 adenosine receptor (Homo sapiens, UniProt P0DMS8)
Test: Cyclic AMP accumulation assay (inhibition of forskolin-stimulated cAMP), CHO cells expressing human A3 adenosine receptor
Settings: 10 μM, relative to 10 μM Cl-IB-MECA
Catalogue of % Activation (hA3AR) at 10 μM readings, one per entry.

{"Compound": "CNC(=O)C12CC1C(n1cnc3c(NCc4cc(C#CCO)ccc4Cl)nc(Cl)nc31)C(O)C2O (stereo not shown)", "Units of measure": "%", "% Activation (hA3AR) at 10 μM": 108}
{"Compound": "CNC(=O)C12CC1C(n1cnc3c(NCc4cc(OC)ccc4OC)nc(Cl)nc31)C(O)C2O (stereo not shown)", "Units of measure": "%", "% Activation (hA3AR) at 10 μM": 107}
{"Compound": "CNC(=O)C12CC1C(n1cnc3c(NCc4cccc(Cl)c4)nc(SC)nc31)C(O)C2O (stereo not shown)", "Units of measure": "%", "% Activation (hA3AR) at 10 μM": 100}
{"Compound": "CNC(=O)[C@@]12C[C@@H]1[C@@H](n1cnc3c(NCc4cccc(I)c4)nc(Cl)nc31)[C@H](O)[C@@H]2O [Compound 4, reference compound]", "Units of measure": "%", "% Activation (hA3AR) at 10 μM": 3}
{"Compound": "CNC(=O)C12CC1C(n1cnc3c(NC4CCCC4)nc(Cl)nc31)C(O)C2O (stereo not shown)", "Units of measure": "%", "% Activation (hA3AR) at 10 μM": 101}
{"Compound": "CNC(=O)[C@@]12C[C@@H]1[C@@H](n1cnc3c(NC)nc(Cl)nc31)[C@H](O)[C@@H]2O", "Units of measure": "%", "% Activation (hA3AR) at 10 μM": 104}
{"Compound": "CNC(=O)C12CC1C(n1cnc3c(NCc4cc(Cl)ccc4OCc4ccccc4)nc(Cl)nc31)C(O)C2O (stereo not shown)", "Units of measure": "%", "% Activation (hA3AR) at 10 μM": 110}

----------
Biological target: human A3 adenosine receptor (Homo sapiens)
Sequence (P0DMS8 1-318): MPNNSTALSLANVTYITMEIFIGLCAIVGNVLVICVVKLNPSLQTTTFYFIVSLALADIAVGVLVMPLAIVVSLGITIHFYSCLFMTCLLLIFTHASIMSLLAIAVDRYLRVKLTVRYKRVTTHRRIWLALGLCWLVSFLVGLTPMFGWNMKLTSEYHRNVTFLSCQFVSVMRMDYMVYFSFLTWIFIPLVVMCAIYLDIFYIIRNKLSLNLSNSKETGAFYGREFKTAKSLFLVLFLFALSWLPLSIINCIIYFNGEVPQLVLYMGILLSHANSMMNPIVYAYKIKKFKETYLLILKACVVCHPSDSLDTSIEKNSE
Test: Binding at human A3 adenosine receptor ([125I]I-AB-MECA, CHO cell membranes)
Parameters: expressed in transfected cells; host or cells: CHO cells
Conditions: [125I]I-AB-MECA; mean ± s.e.m., n = 3-5; read-out: Ki(hA3AR)
Property name: log10 of Ki (log10 of the value in nM)

{"Molecule": "CNC(=O)[C@@]12C[C@@H]1[C@@H](n1cnc3c(NCC(c4ccccc4)c4ccccc4)nc(Cl)nc31)[C@H](O)[C@@H]2O", "log10 of Ki": -0.16}
{"Molecule": "CNC(=O)C12CC1C(n1cnc3c(NCc4cccc(Br)c4)nc(Cl)nc31)C(O)C2O (centres unmarked)", "log10 of Ki": -0.42}
{"Molecule": "CNC(=O)C12CC1C(n1cnc3c(NCc4cc(C#CCO)ccc4Cl)nc(Cl)nc31)C(O)C2O (centres unmarked)", "log10 of Ki": 2.34}
{"Molecule": "CNC(=O)C12CC1C(n1cnc3c(NCc4cc(OC)ccc4OC)nc(Cl)nc31)C(O)C2O (centres unmarked)", "log10 of Ki": 0.15}
{"Molecule": "CNC(=O)C12CC1C(n1cnc3c(NCc4cc(Cl)ccc4OCc4ccccc4)nc(Cl)nc31)C(O)C2O (centres unmarked)", "log10 of Ki": 0.72}
